- Target desc: Histone deacetylase 1 (Homo sapiens, UniProt Q13547)
- Sequence (Q13547 whole entry): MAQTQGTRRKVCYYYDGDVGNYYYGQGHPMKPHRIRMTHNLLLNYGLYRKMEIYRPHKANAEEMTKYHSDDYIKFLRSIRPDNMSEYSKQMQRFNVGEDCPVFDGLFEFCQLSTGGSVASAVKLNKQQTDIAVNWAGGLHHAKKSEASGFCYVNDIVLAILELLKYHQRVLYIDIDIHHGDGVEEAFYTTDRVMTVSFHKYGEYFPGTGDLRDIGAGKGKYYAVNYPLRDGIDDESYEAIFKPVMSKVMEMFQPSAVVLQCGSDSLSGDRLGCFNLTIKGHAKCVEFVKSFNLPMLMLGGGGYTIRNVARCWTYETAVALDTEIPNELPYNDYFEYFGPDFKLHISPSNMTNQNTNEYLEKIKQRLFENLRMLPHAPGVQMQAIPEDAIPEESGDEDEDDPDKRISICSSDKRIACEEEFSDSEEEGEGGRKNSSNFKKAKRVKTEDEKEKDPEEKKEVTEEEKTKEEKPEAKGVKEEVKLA
- Test details: Inhibition of recombinant human HDAC1 by fluorimetry
Parameter: IC50

I have this molecule here, CN(/N=C/c1ccc(C(=O)NO)cc1)C(=O)c1ccc(N(C)C)cc1 , and I need its recorded IC50.
> 3 µM

What do you get for CN(C)c1ccc(C(=O)N/N=C/c2cccc(C(=O)NO)c2)cc1 ?
> 10 µM

What do you get for CN(C)c1ccc(C(=O)N/N=C/c2ccc(C(=O)NO)cc2)cc1 ?
> 3 µM

What do you get for C/C(=N\N(C)C(=O)c1ccc(N(C)C)cc1)c1ccc(C(=O)NO)cc1 ?
> 3 µM

What do you get for CN(/N=C/c1cccc(C(=O)NO)c1)C(=O)c1ccc(N(C)C)cc1 ?
> 10 µM

What do you get for C/C(=N\NC(=O)c1ccc(N(C)C)cc1)c1ccc(C(=O)NO)cc1 ?
> 3 µM
